Assay Comment: Cmax in BALB/c mouse at 5 mg/kg, po measured upto 24 hrs by LC-MS/MS analysis
Type: ADME, organism-based
Parameters: dose 5 mg/kg, time < 24 hrs, route po
Condition Context: in vivo
Under this convention, Fulfilled denotes Cmax strictly below 1000 ng/mL and Not fulfilled denotes Cmax at or above 1000 ng/mL.

| Structure As Smiles | Group Label |
| --- | --- |
| COc1cc(N2CCC(N3CC(N(C)C)C3)CC2)c(C)cc1Nc1ncc(Br)c(Nc2ccc3nccnc3c2P(C)(C)=O)n1 | Not fulfilled |
| COc1cc(N2CCC(N3CCN(C)CC3)CC2)ccc1Nc1ncc(Cl)c(Nc2ccccc2P(C)(C)=O)n1 | Fulfilled |
| COc1cc(N2CCC(N3C[C@H]4COC[C@H]4C3)CC2)c(C)cc1Nc1ncc(Br)c(Nc2ccc3nccnc3c2P(C)(C)=O)n1 | Not fulfilled |
| COc1cc(N2CCC(N3CC(F)(CO)C3)CC2)c(C)cc1Nc1ncc(Br)c(Nc2ccc3nccnc3c2P(C)(C)=O)n1 | Not fulfilled |
| COc1cc(N2CCC(N3CC(CC#N)C3)CC2)c(C)cc1Nc1ncc(Br)c(Nc2ccc3nccnc3c2P(C)(C)=O)n1 | Not fulfilled |

FYI, the data here is from ChEMBL document CHEMBL5325448.
